From: patent US4218443A

Target: pancreatic lipase (Rattus norvegicus, UniProt P27657)
Construct: stimulated to release pancreatic proteins by addition of 10^-5 M carbachol; released pancreatic juice, centrifuged
Sequence (P27657 17-465): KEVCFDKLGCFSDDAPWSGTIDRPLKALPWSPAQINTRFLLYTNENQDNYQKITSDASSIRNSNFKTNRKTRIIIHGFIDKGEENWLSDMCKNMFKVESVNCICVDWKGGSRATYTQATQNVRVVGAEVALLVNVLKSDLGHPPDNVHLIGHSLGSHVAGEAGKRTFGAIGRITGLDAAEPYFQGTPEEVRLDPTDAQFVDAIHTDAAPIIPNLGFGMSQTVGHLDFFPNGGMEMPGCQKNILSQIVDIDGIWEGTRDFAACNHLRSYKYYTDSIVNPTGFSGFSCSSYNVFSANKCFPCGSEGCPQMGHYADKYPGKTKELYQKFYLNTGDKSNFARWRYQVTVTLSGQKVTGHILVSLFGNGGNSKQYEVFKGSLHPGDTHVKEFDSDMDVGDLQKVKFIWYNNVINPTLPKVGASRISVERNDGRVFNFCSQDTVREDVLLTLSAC
Experiment: In vitro pancreatic lipase screen ([14C]-triolein assay)
Conditions: read-out: Pancreatic Lipase Activity I50
Measured pIC50, listed per entry for reference.
The quantity pIC50 is defined as the negative base-10 logarithm of the molar concentration.

molecule: CC[C@@H](C(=O)[C@@H](C)[C@@H](O)[C@H](C)CCc1c(Br)cc(C)c(O)c1C(=O)O)[C@H]1O[C@](CC)([C@H]2CC[C@](O)(CC)[C@H](C)O2)C[C@@H]1C
observation-type: pIC50
value-measured: 3.22

molecule: CC[C@@H](C(=O)[C@@H](C)[C@@H](O)[C@H](C)CCc1c(Cl)cc(C)c(O)c1C(=O)O)[C@H]1O[C@](CC)([C@H]2CC[C@](O)(CC)[C@H](C)O2)C[C@@H]1C
observation-type: pIC50
value-measured: 2.15

molecule: CCC(C(=NOC)C(C)C(O)C(C)CCc1ccc(C)c(O)c1C(=O)O)C1OC(CC)(C2CCC(O)(CC)C(C)O2)CC1C (stereo not shown)
observation-type: pIC50
value-measured: 3.70

## Input Fill in pIC50 for record CC[C@@H](C(=O)[C@@H](C)[C@@H](O)[C@H](C)CCc1ccc(C)c(OC(=O)c2ccc(Br)cc2)c1C(=O)O)[C@H]1O[C@](CC)([C@H]2CC[C@](O)(CC)[C@H](C)O2)C[C@@H]1C [Lasalocid 4-bromo benzoate]
## Output 3.89

## Input Give a short answer stating reported pIC50 for CC/C(=C\C=C\[C@@H]1C=C[C@@H]2[C@@H](CC)CC[C@H]2[C@@H]1C(=O)c1ccc[nH]1)[C@@H]1O[C@@H]([C@@H](C)C(=O)O)CC[C@@H]1C [X-14547A] .
## Output 3.15

## Input Report pIC50 for CC[C@@H](C(=O)[C@@H](C)[C@@H](O)[C@H](C)CCc1c([N+](=O)[O-])cc(C)c(O)c1[N+](=O)[O-])[C@H]1O[C@](CC)([C@H]2CC[C@](O)(CC)[C@H](C)O2)C[C@@H]1C
## Output 3.40

---

Target: pancreatic lipase (Rattus norvegicus, UniProt P27657)
Construct: stimulated to release pancreatic proteins by addition of 10^-5 M carbachol; released pancreatic juice, centrifuged
Sequence (P27657 17-465): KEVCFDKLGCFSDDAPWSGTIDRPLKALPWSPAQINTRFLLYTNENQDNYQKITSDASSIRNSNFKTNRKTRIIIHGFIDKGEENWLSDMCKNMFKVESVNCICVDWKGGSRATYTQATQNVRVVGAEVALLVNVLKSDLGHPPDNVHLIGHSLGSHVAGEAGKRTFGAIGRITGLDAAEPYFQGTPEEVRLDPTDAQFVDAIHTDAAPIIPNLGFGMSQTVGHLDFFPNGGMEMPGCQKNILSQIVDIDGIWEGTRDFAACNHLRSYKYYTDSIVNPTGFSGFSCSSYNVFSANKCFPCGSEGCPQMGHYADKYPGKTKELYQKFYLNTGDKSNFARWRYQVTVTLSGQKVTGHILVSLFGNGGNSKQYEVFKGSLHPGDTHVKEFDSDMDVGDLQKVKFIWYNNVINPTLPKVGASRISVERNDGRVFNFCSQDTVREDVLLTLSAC
Experiment: In vitro pancreatic lipase screen ([14C]-triolein assay)
Conditions: read-out: Pancreatic Lipase Activity I50
Some compounds, each annotated with its measured log10 IC50.
Please interpret these as log10 of IC50 where IC50 is in µM.

compound: CO[C@@H]1C[C@@H](C[C@H]2CC[C@H](C)[C@H]([C@@H](C)C(=O)O)O2)O[C@]2(O[C@](C)([C@H]3CC[C@@](C)([C@@H]4O[C@@H]([C@H]5O[C@@](O)(CO)[C@H](C)C[C@@H]5C)C[C@@H]4C)O3)C[C@H]2C)[C@@H]1C [Nigericin]
log10 IC50: 3.40

compound: CC[C@@H](C(=O)[C@@H](C)[C@@H](O)[C@H](C)CCc1c(I)cc(C)c(O)c1C(=O)O)[C@H]1O[C@](CC)([C@H]2CC[C@](O)(CC)[C@H](C)O2)C[C@@H]1C [Iodolasalocid]
log10 IC50: 2.41

compound: CCC(C(=O)C(C)C(O)C(C)CCc1ccc(C)c(O)c1C(=O)O)C1OC(CC)(C2CCC(CC)(C(C)O)O2)CC1C (stereo not shown) [Isolasalocid A]
log10 IC50: 2.59

compound: CCCCCCCC(=O)Oc1c(C)ccc(CC[C@@H](C)[C@H](O)[C@H](C)C(=O)[C@H](CC)[C@H]2O[C@](CC)([C@H]3CC[C@](O)(CC)[C@H](C)O3)C[C@@H]2C)c1C(=O)O [Lasalocid Octanoate]
log10 IC50: 2.04

compound: CC[C@@H](C(=O)[C@@H](C)[C@@H](O)[C@H](C)CCc1c([N+](=O)[O-])cc(C)c(O)c1C(=O)O)[C@H]1O[C@](CC)([C@H]2CC[C@](O)(CC)[C@H](C)O2)C[C@@H]1C [Nitrolasalocid]
log10 IC50: 3.12

## Input System pancreatic lipase (Rattus norvegicus, UniProt P27657). Read-out log10 IC50. Item CCCCCCC(=O)Oc1c(C)ccc(CC[C@@H](C)[C@H](O)[C@H](C)C(=O)[C@H](CC)[C@H]2O[C@](CC)([C@H]3CC[C@](O)(CC)[C@H](C)O3)C[C@@H]2C)c1C(=O)O [Lasalocid Heptanoate] . Report value.
## Output 2.34

## Input Answer briefly: log10 IC50 recorded on pancreatic lipase (Rattus norvegicus, UniProt P27657) for CC[C@@H](C(=O)[C@@H](C)[C@@H](O)[C@H](C)CCc1ccc(C)c(O)c1C(=O)O)[C@H]1O[C@](CC)([C@H]2CC[C@](O)(CC)[C@H](C)O2)C[C@@H]1C [Lasalocid]
## Output 2.00
